Molecular target: Bub1 (Homo sapiens)
Construct: catalytic domain of human Bub1 (amino acids 704-1085); His6 (N); made in house; host or cells: Hi5 insect cells
Sequence (O43683 704-1085): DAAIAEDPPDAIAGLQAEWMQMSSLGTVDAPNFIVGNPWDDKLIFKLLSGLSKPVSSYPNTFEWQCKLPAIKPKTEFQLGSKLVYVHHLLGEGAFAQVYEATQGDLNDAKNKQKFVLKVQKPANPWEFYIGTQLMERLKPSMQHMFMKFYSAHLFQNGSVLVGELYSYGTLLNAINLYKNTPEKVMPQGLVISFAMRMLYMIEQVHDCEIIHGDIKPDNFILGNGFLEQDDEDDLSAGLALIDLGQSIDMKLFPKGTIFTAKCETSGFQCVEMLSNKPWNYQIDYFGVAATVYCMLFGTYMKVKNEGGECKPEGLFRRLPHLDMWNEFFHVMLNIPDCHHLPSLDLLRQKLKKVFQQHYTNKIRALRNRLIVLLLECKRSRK
Assay: Bub1 TR-FRET high ATP kinase assay
Format: biochemical
Conditions: Bub1 high ATP (2 mM) IC50 [mol/l], 2 mM ATP
Assay Endpoint: pIC50
Formally, pIC50 is defined as -log10 of the concentration c, with c in mol/L.

Asked: What value of pIC50 has been reported for the following molecule? Cc1c(F)cccc1Nc1c(-c2ccncc2OCC2COCCO2)[nH]c2c1C(=O)NCC2 (single isomer, unassigned) [Example 48]
Given back: 4.91

Asked: What value of pIC50 has been reported for the following molecule? COc1c(Cl)cccc1Nc1c(-c2ccncc2O[C@@H](C)C2COCCO2)[nH]c2c1C(=O)NCC2 (single isomer, unassigned) [Example 58]
Given back: 4.86

Asked: What value of pIC50 has been reported for the following molecule? CCc1c(Cl)cccc1Nc1c(-c2ccncc2OCC2CN(C)CCO2)[nH]c2c1C(=O)NCC2 (stereo not shown)
Given back: 4.76

----------
Target: Ba/F3-EGFR L861Q cells (Homo sapiens, UniProt P00533, L861Q, cells depend on it)
Sequence (P00533 whole entry L861Q): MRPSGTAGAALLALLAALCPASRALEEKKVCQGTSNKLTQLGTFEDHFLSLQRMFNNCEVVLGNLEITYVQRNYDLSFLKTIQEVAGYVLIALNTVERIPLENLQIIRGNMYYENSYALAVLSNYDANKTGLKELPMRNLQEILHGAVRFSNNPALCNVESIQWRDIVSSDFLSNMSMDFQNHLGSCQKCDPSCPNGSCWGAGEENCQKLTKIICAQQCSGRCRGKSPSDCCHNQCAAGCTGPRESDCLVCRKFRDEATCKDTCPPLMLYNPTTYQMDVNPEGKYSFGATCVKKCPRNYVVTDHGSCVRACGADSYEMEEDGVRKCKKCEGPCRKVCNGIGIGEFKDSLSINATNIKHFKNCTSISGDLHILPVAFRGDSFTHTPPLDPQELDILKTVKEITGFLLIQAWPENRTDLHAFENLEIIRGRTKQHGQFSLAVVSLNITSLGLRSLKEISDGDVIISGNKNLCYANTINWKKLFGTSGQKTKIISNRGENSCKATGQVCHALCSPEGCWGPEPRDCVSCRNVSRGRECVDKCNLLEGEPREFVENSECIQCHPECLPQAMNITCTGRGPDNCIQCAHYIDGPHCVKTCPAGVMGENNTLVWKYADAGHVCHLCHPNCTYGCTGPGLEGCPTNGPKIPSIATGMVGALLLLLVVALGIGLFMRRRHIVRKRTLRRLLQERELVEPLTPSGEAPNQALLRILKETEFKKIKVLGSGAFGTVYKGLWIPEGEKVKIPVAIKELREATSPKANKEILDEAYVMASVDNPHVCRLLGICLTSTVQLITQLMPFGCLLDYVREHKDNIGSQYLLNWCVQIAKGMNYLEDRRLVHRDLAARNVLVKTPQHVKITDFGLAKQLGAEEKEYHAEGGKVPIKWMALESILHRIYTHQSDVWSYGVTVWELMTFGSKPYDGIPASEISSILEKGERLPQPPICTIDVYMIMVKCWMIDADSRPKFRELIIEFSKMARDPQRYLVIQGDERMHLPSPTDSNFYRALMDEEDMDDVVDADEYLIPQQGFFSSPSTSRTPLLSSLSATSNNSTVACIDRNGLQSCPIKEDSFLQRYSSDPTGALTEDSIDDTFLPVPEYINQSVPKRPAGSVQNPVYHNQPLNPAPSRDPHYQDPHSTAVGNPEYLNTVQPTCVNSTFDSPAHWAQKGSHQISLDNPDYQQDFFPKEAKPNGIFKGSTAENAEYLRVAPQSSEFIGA
Experiment: Ba/F3 cell survival assay, EGFR L861Q
Type: cell-based
Conditions: without IL-3, without EGF, 48 h; read-out: BA/F3 (EGFR L861Q) IC50
Assign labels as follows, please: t for GI50 below 20 nM; f for GI50 equal to or exceeding 20 nM.

Asked: Field: below-cutoff. Rule: recorded GI50 strictly less than 20 nM. Subject: "COc1c(Cl)cccc1Nc1c(-c2ccncc2OC[C@@H]2COCCN2C)[nH]c2c1C(=O)NCC2"
Given back: t

Asked: Field: below-cutoff. Rule: recorded GI50 strictly less than 20 nM. Subject: "CCc1c(Cl)cccc1Nc1c(-c2ccncc2OC[C@@H]2CN(C)CCO2)[nH]c2c1C(=O)NCC2"
Given back: f

Asked: Field: below-cutoff. Rule: recorded GI50 strictly less than 20 nM. Subject: Cc1c(F)cccc1Nc1c(-c2ccncc2OCC2COCCO2)[nH]c2c1C(=O)NCC2 (single isomer, unassigned)
Given back: f

Asked: Field: below-cutoff. Rule: recorded GI50 strictly less than 20 nM. Subject: O=C1NCCc2[nH]c(-c3ccncc3OCC3COCCO3)c(Nc3cccc(Cl)c3Cl)c21 (single isomer, unassigned)
Given back: t

Asked: Field: below-cutoff. Rule: recorded GI50 strictly less than 20 nM. Subject: "Cc1c(Cl)cccc1Nc1c(-c2ccncc2OC[C@@H]2CN(C)CCO2)[nH]c2c1C(=O)NCC2"
Given back: t

Asked: Field: below-cutoff. Rule: recorded GI50 strictly less than 20 nM. Subject: COc1c(Cl)cccc1Nc1c(-c2ccncc2OCC2COC(C)(C)CO2)[nH]c2c1C(=O)NCC2 (single isomer, unassigned)
Given back: t

Asked: Field: below-cutoff. Rule: recorded GI50 strictly less than 20 nM. Subject: CCc1c(Cl)cccc1Nc1c(-c2ccncc2OCC2CN(C)CCO2)[nH]c2c1C(=O)NCC2 (stereo not drawn)
Given back: t

Asked: Field: below-cutoff. Rule: recorded GI50 strictly less than 20 nM. Subject: COc1c(Cl)cccc1Nc1c(-c2ccncc2OC[C@@H]2COCCO2)[nH]c2c1C(=O)NCC2 (single isomer, unassigned)
Given back: t

----------
Biological target: Ba/F3-EGFR-N771_P772insH cells (Homo sapiens, UniProt P00533, INS771H, cells depend on it)
Sequence (P00533 with tags, fused parts or gaps INS771H): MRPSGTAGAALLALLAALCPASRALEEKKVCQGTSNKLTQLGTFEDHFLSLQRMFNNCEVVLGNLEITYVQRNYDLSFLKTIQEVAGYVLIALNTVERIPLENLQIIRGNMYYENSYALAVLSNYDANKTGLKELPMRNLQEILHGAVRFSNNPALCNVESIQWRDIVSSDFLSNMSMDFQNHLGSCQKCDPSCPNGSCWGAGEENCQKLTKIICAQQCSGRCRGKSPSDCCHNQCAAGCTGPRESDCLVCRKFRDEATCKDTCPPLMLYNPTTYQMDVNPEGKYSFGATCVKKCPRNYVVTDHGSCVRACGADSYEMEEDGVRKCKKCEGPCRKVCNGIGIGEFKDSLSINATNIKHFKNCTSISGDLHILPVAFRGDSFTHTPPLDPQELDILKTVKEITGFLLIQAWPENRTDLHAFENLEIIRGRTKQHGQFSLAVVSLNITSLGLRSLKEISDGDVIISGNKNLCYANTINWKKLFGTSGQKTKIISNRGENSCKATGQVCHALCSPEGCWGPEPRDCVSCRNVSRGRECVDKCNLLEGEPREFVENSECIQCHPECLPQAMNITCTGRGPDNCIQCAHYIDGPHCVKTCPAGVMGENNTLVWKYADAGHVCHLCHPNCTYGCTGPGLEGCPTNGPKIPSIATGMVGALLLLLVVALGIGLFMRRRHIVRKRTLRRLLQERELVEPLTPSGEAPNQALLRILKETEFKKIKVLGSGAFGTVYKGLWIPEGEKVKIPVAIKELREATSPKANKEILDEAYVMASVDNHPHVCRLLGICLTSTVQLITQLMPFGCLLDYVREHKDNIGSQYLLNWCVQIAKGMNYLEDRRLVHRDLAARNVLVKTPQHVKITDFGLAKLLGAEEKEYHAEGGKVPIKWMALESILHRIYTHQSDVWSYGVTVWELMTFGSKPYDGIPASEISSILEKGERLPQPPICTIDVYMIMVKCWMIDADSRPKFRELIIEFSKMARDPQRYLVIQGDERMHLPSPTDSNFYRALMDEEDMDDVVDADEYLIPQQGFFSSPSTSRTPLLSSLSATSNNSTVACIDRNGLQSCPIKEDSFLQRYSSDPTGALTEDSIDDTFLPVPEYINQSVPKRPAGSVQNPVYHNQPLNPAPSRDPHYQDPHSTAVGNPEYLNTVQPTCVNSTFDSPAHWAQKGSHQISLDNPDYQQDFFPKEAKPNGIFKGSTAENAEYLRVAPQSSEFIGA
Experiment: Ba/F3 cell survival assay, EGFR N771_P772insH
Format: cell-based
Conditions: without IL-3, without EGF, 48 h; read-out: BA/F3 (EGFR N771_772 insH) IC50
Would you kindly list GI50 for each of these compounds?

Asked: What value of GI50 has been reported for the following compound? COc1c(Cl)cccc1Nc1c(-c2ccncc2OC[C@@H]2COCCO2)[nH]c2c1C(=O)NCC2 (single isomer, unassigned) [Example 2]
Given back: 7.48 nM

Asked: What value of GI50 has been reported for the following compound? COc1c(F)cccc1Nc1c(-c2ccncc2OC[C@@H]2COCCN2C)[nH]c2c1C(=O)NCC2 [Example 20]
Given back: 6.59 nM

Asked: What value of GI50 has been reported for the following compound? Cc1c(Cl)cccc1Nc1c(-c2ccncc2OCC2COC(C)(C)CO2)[nH]c2c1C(=O)NCC2 (single isomer, unassigned) [Example 46]
Given back: 5.77 nM

Asked: What value of GI50 has been reported for the following compound? Cc1c(F)cccc1Nc1c(-c2ccncc2OCC2COCCO2)[nH]c2c1C(=O)NCC2 (single isomer, unassigned) [Example 48]
Given back: 17.6 nM

Asked: What value of GI50 has been reported for the following compound? Cc1c(Cl)cccc1Nc1c(-c2ccncc2OC[C@@H]2CN(C)CCO2)[nH]c2c1C(=O)NCC2 [Example 42]
Given back: 6.01 nM
